pKi values recorded for UniProt:P07550
// pKi is dimensionless: -log10 of concentration (M)

Fill in the blank: the reported pKi of NC[C@H](O)c1cc(O)c(O)cc1F is ____.
4.80

Fill in the blank: the reported pKi of NC[C@H](O)c1ccc(O)c(O)c1F is ____.
2.94

====

Would you mind telling me the reported Ki of each entry?
# test_target: Beta-2 adrenergic receptor (Homo sapiens, UniProt P07550, N293F)
# Sequence (P07550 whole entry N293F): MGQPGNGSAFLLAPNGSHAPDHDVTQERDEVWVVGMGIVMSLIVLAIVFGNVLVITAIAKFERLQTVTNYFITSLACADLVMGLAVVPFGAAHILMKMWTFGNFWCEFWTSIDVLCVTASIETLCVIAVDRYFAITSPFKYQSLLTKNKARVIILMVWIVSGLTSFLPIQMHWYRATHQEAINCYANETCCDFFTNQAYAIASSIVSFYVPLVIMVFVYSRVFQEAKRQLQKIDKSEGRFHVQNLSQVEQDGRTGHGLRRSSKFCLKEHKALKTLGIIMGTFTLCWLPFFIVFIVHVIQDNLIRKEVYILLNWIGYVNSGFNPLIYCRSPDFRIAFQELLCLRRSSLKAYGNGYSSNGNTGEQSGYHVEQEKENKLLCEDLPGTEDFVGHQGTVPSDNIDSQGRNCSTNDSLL
# assay_notes: Displacement of [3H]dihydroalprenolol from human adrenergic beta2 receptor N293F mutant expressed in COS7 cell membrane
Supply the numeric figure in µM, leaving out any unit text.

Fill in the blank: the reported Ki of NC[C@H](O)c1cc(O)c(O)cc1F is ____.
216

Fill in the blank: the reported Ki of NC[C@H](O)c1ccc(O)c(O)c1F is ____.
70.1

====

# test_target: Beta-2 adrenergic receptor (Homo sapiens, UniProt P07550, N293L)
# Sequence (P07550 whole entry N293L): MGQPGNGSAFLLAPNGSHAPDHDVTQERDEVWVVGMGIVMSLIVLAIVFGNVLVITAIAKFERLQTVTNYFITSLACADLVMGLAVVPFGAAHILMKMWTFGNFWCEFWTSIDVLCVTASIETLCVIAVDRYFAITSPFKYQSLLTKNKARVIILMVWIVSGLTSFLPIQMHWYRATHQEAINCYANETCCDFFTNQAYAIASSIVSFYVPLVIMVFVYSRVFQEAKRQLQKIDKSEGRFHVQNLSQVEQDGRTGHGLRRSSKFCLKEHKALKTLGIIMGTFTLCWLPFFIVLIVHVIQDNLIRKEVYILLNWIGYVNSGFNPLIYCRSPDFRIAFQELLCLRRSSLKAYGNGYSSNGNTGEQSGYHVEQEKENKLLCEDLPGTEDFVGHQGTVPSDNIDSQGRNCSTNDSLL
# assay_notes: Displacement of [3H]dihydroalprenolol from human adrenergic beta2 receptor N293L mutant expressed in COS7 cell membrane
Would you mind telling me the reported pKi of each entry?
// pKi is dimensionless: -log10 of concentration (M)

Enter reported pKi observed with Beta-2 adrenergic receptor (Homo sapiens, UniProt P07550, N293L) for NC[C@H](O)c1cc(O)c(O)cc1F
3.93

Enter reported pKi observed with Beta-2 adrenergic receptor (Homo sapiens, UniProt P07550, N293L) for NC[C@H](O)c1ccc(O)c(O)c1F
3.73
